assay-name: RP, Waters CORTECS T3, 100 × 2.1 mm, 2.7 µm, 0.1 mL/min, estimated dead time 2.2 min; A: water + 0.1% formic acid, pH 3; B: methanol + 0.1% formic acid, pH 3; gradient (min/%B) 0/5 5/5 25/95 25.1/100 35/100 35.1/5 45/5
run-conditions: stereoisomer not certain
What LC retention time was measured for each of the following?
Answers are plain numbers, in min.

Consider the following illustrative entries.
Prompt: Reported LC retention time for CCCCCCSCC(NC(=O)CCC(N)C(=O)O)C(=O)NCC(=O)O (stereo not given) : what is it?
Response: 20.5

Prompt: What does the data say about its LC retention time? Entry: Nc1ccccc1O
Response: 2.8

Prompt: I have this molecule here, Cc1cc2nc[nH]c2cc1C , and I need its recorded LC retention time.
Response: 15.1

Prompt: Consider the molecule COc1cc(C=CC(=O)O)ccc1O [FERULATE] and give its measured LC retention time.
Response: 17.2

Okay, now this molecule:
Prompt: Quick one: LC retention time for N[C@@H](Cc1cc(I)c(O)c(I)c1)C(=O)O ?
Response: 15.8

----------
Please provide measured LC retention time for the entries that follow.
assay-name: RP, Waters ACQUITY UPLC BEH C18, 100 × 2.1 mm, 1.7 µm, 0.1 mL/min, estimated dead time 2.2 min; A: water + 0.1% formic acid, pH 3; B: methanol + 0.1% formic acid, pH 3; gradient (min/%B) 0/5 5/5 25/100 30/100 30.1/5 35/5
run-conditions: stereoisomer not certain
One number for each entry, in min.

Prompt: Name the recorded LC retention time for O=C([O-])Cc1c[nH]c2ccccc12 [INDOLE-3-ACETATE] .
Response: 18.2

Please state, for each entry, its recorded LC retention time.
1. O=c1cccc[nH]1 [2-HYDROXYPYRIDINE]
2. Cc1cc2nc3[nH]c(=O)[nH]c(=O)c3nc2cc1C
3. Nc1nc2nc[nH]c2c(=O)[nH]1
4. CSCC1OC(n2cnc3c(N)ncnc32)C(O)C1O (configuration not stated)
5. NC(=O)C1CCCN1C(=O)C(Cc1cnc[nH]1)NC(=O)C1CCC(=O)N1 (configuration not stated)

Response:
1. 5.99
2. 19.1
3. 2.74
4. 12.9
5. 2.74

----------
assay-name: HILIC, Merck SeQuant ZIC-HILIC, 150 × 2.1 mm, 5 µm, 0.75 mL/min, estimated dead time 0.44 min; A: water + 0.1% acetic acid + 10 mM ammonium acetate, pH 4; B: 5% water + 95% acetonitrile + 0.1% acetic acid + 10 mM ammonium acetate, pH 4; gradient (min/%B) 0/95 5/95 20/57 25/57 30/95 40/95
run-conditions: stereoisomer not certain
observation-type: LC retention time (min)
One number for each entry, in min.

Prompt: I'd like to know its LC retention time. The molecule in question is CC(=O)NC(CC(N)=O)C(=O)O [N-ALPHA-ACETYL-L-ASPARAGINE]
Response: 11.8

Prompt: Would you mind telling me what LC retention time value was observed for CC(=O)NC(CCCCN)C(=O)O [N-ALPHA-ACETYL-L-LYSINE] ?
Response: 13.4

Prompt: Endpoint output: LC retention time of CC(=O)NCCCC(=O)[O-] [4-ACETAMIDOBUTANOATE] . Value?
Response: 8.54

Prompt: Which LC retention time reading was recorded for the molecule CSCCC(NC=O)C(=O)O [FORMYL-L-METHIONYL PEPTIDE] ?
Response: 7.68

Further cases:
Prompt: Return reported LC retention time; argument: CC(=O)N[C@@H](CC(C)C)C(=O)O [N-ACETYL-L-LEUCINE]
Response: 5.95

----------
assay-name: RP, Waters CORTECS T3, 100 × 2.1 mm, 2.7 µm, 0.2 mL/min, estimated dead time 1.1 min; A: water + 0.1% formic acid, pH 3; B: methanol + 0.1% formic acid, pH 3; gradient (min/%B) 0/0 1/0 6/5 30/100 35/100 35.1/0 40/0
run-conditions: stereoisomer not certain
The label is class 1 for LC retention time below 7 min and class 0 for LC retention time equal to or exceeding 7 min.

Example results:
Prompt: Dear colleague, could you confirm whether LC retention time of c1ncc2[nH]cnc2n1 falls below 7 min? Thanks.
Response: class 1

Prompt: Determine whether this molecule shows LC retention time lower than 7 min (ties excluded): Nc1ncnc2c1ncn2C1OC(COP(=O)(O)OP(=O)(O)OC2OC(CO)C(O)C(O)C2O)C(O)C1O (stereo not drawn)
Response: class 1

Prompt: Would you kindly verify if LC retention time of O=c1ccn(C2CC(O)C(COP(=O)(O)O)O2)c(=O)[nH]1 (stereo not drawn) [2'-DEOXYURIDINE 5'-MONOPHOSPHATE] is strictly less than 7 min?
Response: class 1

Prompt: For O=C(O)c1cc(=O)c2ccccc2[nH]1 [4-HYDROXY-2-QUINOLINECARBOXYLIC ACID] , is the recorded LC retention time below the cut-off of 7 min?
Response: class 0

Prompt: Please state whether LC retention time is below 7 min for Nc1nc2c(ncn2C2OC3COP(=O)(O)OC3C2O)c(=O)[nH]1 (stereo not drawn) [GUANOSINE 3',5'-CYCLIC MONOPHOSPHATE]
Response: class 0

Prompt: hey, is LC retention time for CCCCCCSCC(NC(=O)CCC(N)C(=O)O)C(=O)NCC(=O)O (stereo not drawn) lower than 7 min or not?
Response: class 0

More entries:
Prompt: API: query returns whether the molecule falls strictly under 7 min in LC retention time. Query: CC1NC(=O)NC1CCCCCC(=O)O (stereo not drawn)
Response: class 0

Prompt: Lab note: LC retention time threshold 7 min. Does this molecule come in strictly under it? O=C(O)C1(O)CC(O)C(O)C(O)C1 (stereo not drawn) [QUINATE]
Response: class 1

----------
assay-name: RP, Waters CORTECS T3, 100 × 2.1 mm, 2.7 µm, 0.3 mL/min, estimated dead time 0.73 min; A: water + 0.1% formic acid, pH 3; B: methanol + 0.1% formic acid, pH 3; gradient (min/%B) 0/0 1/0 6/5 30/100 35/100 35.1/0 40/0
run-conditions: stereoisomer not certain
observation-type: LC retention time (min)
One number for each entry, in min.

Prompt: Query (molecule): Cc1cnc(=O)[nH]c1N [5-METHYLCYTOSINE] ; field requested: LC retention time
Response: 0.9

Batch request: LC retention time per item, same order as input.
1. CCCCCCCCCCCCCCCC(O)C(N)CO (stereo not given) [SPHINGANINE]
2. C=CC1=C(C)C(C=c2[nH]c(=Cc3[nH]c(C=C4NC(=O)C(C)=C4C=C)c(C)c3CCC(=O)O)c(CCC(=O)O)c2C)=NC1=O [BILIVERDIN]
3. Nc1cccc2ccccc12 [1-NAPHTHYLAMINE]
4. N[C@@H](Cc1ccc(O)c(O)c1)C(=O)O [3,4-DIHYDROXY-L-PHENYLALANINE]
5. NC(=O)c1cccnc1 [NICOTINAMIDE]
6. COc1ccc2[nH]cc(CCNC(C)=O)c2c1 [MELATONIN]
7. CCC(NC(=O)CCC(N)C(=O)O)C(=O)NCC(=O)O (stereo not given) [OPHTHALMIC ACID]

Response:
[26.1, 22.6, 11.8, 0.92, 1.57, 14.8, 0.92]

Please supply LC retention time for each of the following items, keeping them in order.
1. COC(=O)Cc1c[nH]c2ccccc12 [METHYL INDOLE-3-ACETATE]
2. CSc1ncnc2nc[nH]c12 [THIOPURINE S-METHYLETHER]
3. N[C@@H](Cc1cc(I)c(O)c(I)c1)C(=O)O [3,5-DIIODO-L-TYROSINE]
4. Nc1nc2c(ncn2C2OC3COP(=O)(O)OC3C2O)c(=O)[nH]1 (stereo not given) [GUANOSINE 3',5'-CYCLIC MONOPHOSPHATE]

Response:
1. 17.6
2. 11.4
3. 12.6
4. 5.42

----------
assay-name: RP, Waters ACQUITY UPLC BEH C18, 100 × 2.1 mm, 1.7 µm, 0.2 mL/min, estimated dead time 1.1 min; A: water + 0.1% formic acid, pH 3; B: methanol + 0.1% formic acid, pH 3; gradient (min/%B) 0/5 5/5 25/100 30/100 30.1/5 35/5
run-conditions: stereoisomer not certain
observation-type: log10 of LC retention time (log10 of the value in min)
A value of 2 here means LC retention time of 100 in min, since values are log10.

Prompt: Reported log10 of LC retention time, molecule O=C(O)C1(O)CC(O)C(O)C(O)C1 (stereo not drawn) [QUINATE] : ____
Response: 0.14

Here are 5 molecules. What values of log10 of LC retention time were reported for them?
1. Nc1ncnc2nc[nH]c12 [ADENINE]
2. CCC(NC(=O)CCC(N)C(=O)O)C(=O)NCC(=O)O (stereo not drawn) [OPHTHALMIC ACID]
3. NC(CCSSCCC(N)C(=O)O)C(=O)O (stereo not drawn) [HOMOCYSTINE]
4. O=C(O)CCCCCCCC(=O)O [AZELAIC ACID]
5. CC(=O)NCCCC(=O)[O-] [4-ACETAMIDOBUTANOATE]

Response:
[0.13, 0.15, 0.14, 1.21, 0.50]

Hi team, please reply with log10 of LC retention time for each item in this list.
1. N[C@@H](Cc1ccc(O)c(O)c1)C(=O)O [3,4-DIHYDROXY-L-PHENYLALANINE]
2. O=C(O)c1cc(=O)c2ccccc2[nH]1 [4-HYDROXY-2-QUINOLINECARBOXYLIC ACID]
3. O=c1[nH]c(=O)c2[nH]cnc2[nH]1 [XANTHINE]
4. Nc1nc2c(ncn2C2OC3COP(=O)(O)OC3C2O)c(=O)[nH]1 (stereo not drawn) [GUANOSINE 3',5'-CYCLIC MONOPHOSPHATE]
5. CC(=O)N[C@@H](CC(C)C)C(=O)O [N-ACETYL-L-LEUCINE]

Response:
0.14
1.04
0.33
0.58
1.12

Hello, I would appreciate it if you could give log10 of LC retention time for each entry below.
1. NC(=O)C1CCCN1C(=O)C(Cc1cnc[nH]1)NC(=O)C1CCC(=O)N1 (stereo not drawn) [THYROTROPIN RELEASING HORMONE]
2. CC(=O)N[C@@H](Cc1ccccc1)C(=O)O [N-ACETYL-L-PHENYLALANINE]
3. CC(=O)N[C@@H](CC(=O)O)C(=O)O [N-ACETYL-L-ASPARTIC ACID]
4. CSCCC(NC=O)C(=O)O [FORMYL-L-METHIONYL PEPTIDE]
5. CC(CCC(=O)NCC(=O)O)C1CCC2C3C(O)CC4CC(O)CCC4(C)C3CC(O)C12C (stereo not drawn) [GLYCOCHOLATE]
6. Nc1nc2c(ncn2C2OC(CO)C(O)C2O)c(=O)[nH]1 (stereo not drawn) [GUANOSINE]

Response:
1: 0.14; 2: 1.14; 3: 0.26; 4: 0.92; 5: 1.34; 6: 0.52

Batch of 5 molecules: report log10 of LC retention time for each.
1. Nc1ccccc1S(=O)(=O)O [ANILINE-2-SULFONIC ACID]
2. Nc1ccn(C2OC(CO)C3OP(=O)([O-])OC32)c(=O)n1 (stereo not drawn) [CYTIDINE 2',3'-CYCLIC MONOPHOSPHATE]
3. Nc1nc2c(ncn2C2OC(COP(=O)(O)O)C(O)C2O)c(=O)[nH]1 (stereo not drawn) [GUANOSINE 5'-MONOPHOSPHATE]
4. N[C@@H](Cc1cc(I)c(Oc2ccc(O)cc2)c(I)c1)C(=O)O [3,5-DIIODO-L-THYRONINE]
5. CCCCCCSCC(NC(=O)CCC(N)C(=O)O)C(=O)NCC(=O)O (stereo not drawn) [S-HEXYL-GLUTATHIONE]

Response:
1: 0.43; 2: 0.13; 3: 0.25; 4: 1.23; 5: 1.24

# batch: return log10 of LC retention time for each of the 4 molecules below
1. O=C(O)C=Cc1cnc[nH]1 [UROCANATE]
2. O=C([O-])CCc1ccccc1O [3-(2-HYDROXYPHENYL)PROPANOATE]
3. CC(CCC(=O)O)C1CCC2C3C(O)CC4CC(O)CCC4(C)C3CC(O)C12C (stereo not drawn) [CHOLATE]
4. CC1NC(=O)NC1CCCCCC(=O)O (stereo not drawn) [DETHIOBIOTIN]

Response:
0.13
1.16
1.36
1.14

Provide the reported log10 of LC retention time of each entry below, same order.
1. O=c1[nH]cnc2c1ncn2C1OC(CO)C(O)C1O (stereo not drawn) [INOSINE]
2. O=C(O)c1cc(=O)c2cccc(O)c2[nH]1 [XANTHURENIC ACID]
3. CC(C)=CCNc1ncnc2nc[nH]c12 [N6-(DELTA2-ISOPENTENYL)-ADENINE]
4. CC(O)(CC(=O)O)C(=O)O (stereo not drawn) [CITRAMALATE]
5. CC(=O)N[C@H](Cc1c[nH]c2ccccc12)C(=O)O [N-ACETYL-D-TRYPTOPHAN]
6. Nc1ncnc2c1ncn2[C@@H]1O[C@H](CSCC[C@H]([NH3+])C(=O)[O-])[C@@H](O)[C@H]1O [S-(5'-ADENOSYL)-L-HOMOCYSTEINE]
7. O=C(O)CCCCC1SCC2NC(=O)NC21 (stereo not drawn) [BIOTIN]
8. CSCCC(NC(C)=O)C(=O)O (racemic) [N-ACETYL-DL-METHIONINE]

Response:
0.52
1.02
1.13
0.43
1.15
0.14
1.08
0.98

Give log10 of LC retention time for all molecules that follow.
1. O=c1[nH]c(=O)c2[nH]c(=O)[nH]c2[nH]1 [URATE]
2. CC(C)(CO)C(O)C(=O)NCCC(=O)O [D-PANTOTHENIC ACID]
3. CC(=O)NCC(=O)O [N-ACETYLGLYCINE]
4. Cc1cc2nc3c(=O)[nH]c(=O)nc-3n(CC(O)C(O)C(O)CO)c2cc1C (stereo not drawn) [RIBOFLAVIN]

Response:
1. 0.14
2. 0.90
3. 0.16
4. 1.10
